System: Ehrlich's ascitic carcinoma
Experiment: Incorporation of 14C-adenine and 14C-valine into cellular fraction of Ehrlich's ascitic carcinoma in vitro
Type: cell-based, mouse
Conditions: Mus musculus, Ehrlich; 14C-valine, in vitro; read-out: IC50 (concentration inhibiting incorporation by 50 percent), valine
Text: In Table 4, the effect of Tiloron (NSC 143969; 2,7-bis-[2-(diethylamino)ethoxy]fluorene-9-one) and 5-(2-dimethylaminoethoxy)-7-oxo-7H-benzo(c) fluorene hydrochloride are compared on incorporation of ^14 C-adenine and ^14 C-valine with the cellular fraction of Ehrlich's ascitic carcinoma (insoluble in trichloacetic acid). The tests in vitro reveal that the composition of the invention was more than 10 times as effective as Tiloron. […] in vitro. Radioactivity incorporation expressed in cpm. […]
METRIC: IC50 (µM)
Give the quantity in µM, number only.

IN: What value of IC50 has been recorded for this entry: CCN(CC)CCOc1ccc2c(c1)C(=O)c1cc(OCCN(CC)CC)ccc1-2
OUT: 600

###

Tested on: Ehrlich's ascitic carcinoma
Assay: Incorporation of 14C-adenine and 14C-valine into cellular fraction of Ehrlich's ascitic carcinoma in vitro
Format: cell-based, mouse
Details: Mus musculus, Ehrlich, read-out: IC50 (concentration inhibiting incorporation by 50 percent), adenine
METRIC: pIC50
Would you please state pIC50, meaning minus log10 of the concentration in mol/L, as a bare number?

IN: What value of pIC50 has been recorded for this entry: CN(C)CCOc1cc2c(c3ccccc13)-c1ccccc1C2=O.Cl [compound 13468, hydrochloride]
OUT: 4.28

###

Assay: Acute toxicity in mice
Settings: mouse, in vivo, po; orally; mice S, males 22-24 gram
METRIC: LD50 (mg/kg)
Give the quantity in mg/kg, number only.

IN: What value of LD50 has been recorded for this entry: CN(C)CCOc1cc2c(c3ccccc13)-c1ccccc1C2=O.Cl
OUT: 600
